Attribution: ChEMBL document CHEMBL5154672

assay: Metabolic stability in rat liver microsomes assessed as half life measured for 75 to 130 mins by LC-MS/MS analysis; type: ADME, Microsome; conditions: time 75-130 min
experimental_endpoint: half-life (h)
Unit h implied. Number only.

Challenge: # lookup: half-life of Nc1ccccc1NC(=O)c1ccc(CN2CCC/C(=C\c3ccccn3)C2=O)cc1
Response given: 1.75

* * *

system: SK-OV-3; test: Antiproliferative activity against human SK-OV-3 cells incubated for 72 hrs by luminescence assay; format: functional, cell-based; details: SK-OV-3, 72 h
Below, each entry is listed alongside its reported IC50.
Numeric answer plus unit only.

smiles_data | IC50
Nc1cc(F)ccc1NC(=O)c1ccc(CNC(=O)/C=C/c2cccnc2)cc1 | 8.46 µM

Attention now shifts to the item below.
Challenge: # lookup: IC50 of Nc1ccccc1NC(=O)c1ccc(CN2CCC/C(=C\c3ccccn3)C2=O)cc1
Response given: 3.17 µM

* * *

experiment: Oral bioavailability in monkey plasma at 10 mg/kg measured upto 24 hrs by LC-MS/MS analysis; format: ADME, organism-based, Macaca fascicularis; details: cynomolgus monkey
experimental_endpoint: bioavailability (%)
Unit % implied. Number only.

Challenge: # lookup: bioavailability of Cl.Nc1ccccc1NC(=O)c1ccc(CN2CCC/C(=C\c3ccccn3)C2=O)cc1
Response given: 27.6

* * *

assay: Clearance in dog plasma at 1 mg/kg, iv measured upto 24 hrs by LC-MS/MS analysis; assay type: ADME, organism-based, Canis lupus familiaris; conditions: in vivo
experimental_endpoint: clearance

Challenge: # lookup: clearance of Cl.Nc1ccccc1NC(=O)c1ccc(CN2CCC/C(=C\c3ccccn3)C2=O)cc1
Response given: 0.403 L/h/kg

* * *

test: Volume of distribution at steady state in dog plasma at 1 mg/kg, iv measured upto 24 hrs by LC-MS/MS analysis; type: ADME, organism-based, Canis lupus familiaris; conditions: read-out: Vdss
experimental_endpoint: Vd (L/kg)
Unit L/kg implied. Number only.

Challenge: # lookup: Vd of Cl.Nc1ccccc1NC(=O)c1ccc(CN2CCC/C(=C\c3ccccn3)C2=O)cc1
Response given: 0.55

* * *

assay: AUC (0 to infinity) in dog plasma at 10 mg/kg, po measured upto 24 hrs by LC-MS/MS analysis; format: ADME, organism-based, Canis lupus familiaris; design: time < 24 hrs, dose 10 mg/kg, route po
experimental_endpoint: AUC(0-inf)
Numeric answer plus unit only.

Challenge: # lookup: AUC(0-inf) of Cl.Nc1ccccc1NC(=O)c1ccc(CN2CCC/C(=C\c3ccccn3)C2=O)cc1
Response given: 15100 ng·h/mL

* * *

assay: AUC (0 to infinity) in CB.17 SCID mouse xenografted with human TMD8 cells at 25 mg/kg, po measured upto 24 hrs by LC-MS/MS analysis; type: ADME, organism-based; design: time < 24 hrs, dose 25 mg/kg, route po; conditions: in vivo
experimental_endpoint: AUC(0-inf) (ng·h/mL)
Unit ng·h/mL implied. Number only.

Challenge: # lookup: AUC(0-inf) of Nc1ccccc1NC(=O)c1ccc(CN2CCC/C(=C\c3ccccn3)C2=O)cc1
Response given: 1230

* * *

assay: Oral bioavailability in ICR mouse at 10 mg/kg measured upto 24 hrs by LC-MS/MS analysis; format: ADME, organism-based; conditions: in vivo
experimental_endpoint: bioavailability (%)
Unit % implied. Number only.

Challenge: # lookup: bioavailability of Cl.Nc1ccccc1NC(=O)c1ccc(CN2CCC/C(=C\c3ccccn3)C2=O)cc1
Response given: 45.6

* * *

experiment: AUC (0 to infinity) in ICR mouse at 2 mg/kg, iv measured upto 24 hrs by LC-MS/MS analysis; type: ADME, organism-based; parameters: time < 24 hrs, dose 2 mg/kg, route iv; conditions: in vivo
experimental_endpoint: AUC(0-inf) (ng·h/mL)
Unit ng·h/mL implied. Number only.

smiles_data | AUC(0-inf), ng·h/mL
Cl.Nc1ccccc1NC(=O)c1ccc(CN2CCC/C(=C\c3ccccn3)C2=O)cc1 | 1250
Nc1cc(F)ccc1NC(=O)c1ccc(CNC(=O)/C=C/c2cccnc2)cc1 | 1350

Attention now shifts to the item below.
Challenge: # lookup: AUC(0-inf) of Nc1ccccc1NC(=O)c1ccc(CN2CCC/C(=C\c3ccccn3)C2=O)cc1
Response given: 1040

* * *

experiment: Half life in ICR mouse at 2 mg/kg, iv measured upto 24 hrs by LC-MS/MS analysis; format: ADME, organism-based; conditions: in vivo
experimental_endpoint: half-life (min)
Unit min implied. Number only.

Challenge: # lookup: half-life of Cl.Nc1ccccc1NC(=O)c1ccc(CN2CCC/C(=C\c3ccccn3)C2=O)cc1
Response given: 25.6

* * *

tested on: MDA-MB-231; experiment: Antiproliferative activity against human MDA-MB-231 cells incubated for 72 hrs by luminescence assay; assay type: functional, cell-based; settings: MDA-MB-231, 72 h
experimental_endpoint: pIC50
Friendly reminder that pIC50 comes from taking -log10 of the concentration in mol/L.

smiles_data | pIC50
Nc1cc(F)ccc1NC(=O)c1ccc(CNC(=O)/C=C/c2cccnc2)cc1 | 5.02

Attention now shifts to the item below.
Challenge: # lookup: pIC50 of Nc1ccccc1NC(=O)c1ccc(CN2CCC/C(=C\c3ccccn3)C2=O)cc1
Response given: 5.64

* * *

assay: AUC (0 to infinity) in monkey plasma at 10 mg/kg, po measured upto 24 hrs by LC-MS/MS analysis; format: ADME, organism-based, Macaca fascicularis; parameters: time < 24 hrs, dose 10 mg/kg, route po; conditions: cynomolgus monkey
experimental_endpoint: AUC(0-inf) (ng·h/mL)
Unit ng·h/mL implied. Number only.

Challenge: # lookup: AUC(0-inf) of Cl.Nc1ccccc1NC(=O)c1ccc(CN2CCC/C(=C\c3ccccn3)C2=O)cc1
Response given: 53200

* * *

assay: Clearance in ICR mouse at 2 mg/kg, iv measured upto 24 hrs by LC-MS/MS analysis; format: ADME, organism-based; conditions: in vivo
experimental_endpoint: clearance (mL/min/kg)
Unit mL/min/kg implied. Number only.

Challenge: # lookup: clearance of Cl.Nc1ccccc1NC(=O)c1ccc(CN2CCC/C(=C\c3ccccn3)C2=O)cc1
Response given: 27.2

* * *

test: Metabolic stability in human liver microsomes assessed as half life measured for 75 to 130 mins by LC-MS/MS analysis; format: ADME, Microsome; settings: liver microsomes, time 75-130 min
Below, each entry is listed alongside its reported half-life.
Unit h implied. Number only.

smiles_data | experimental_endpoint | readout_value
Nc1ccccc1NC(=O)c1ccc(CN2CCC/C(=C\c3ccco3)C2=O)cc1 | half-life | 5.18
Nc1ccccc1NC(=O)c1ccc(CN2CCC/C(=C\c3ccc(Cl)cc3)C2=O)cc1 | half-life | 2.42

Attention now shifts to the item below.
Challenge: # lookup: half-life of Nc1cc(F)ccc1NC(=O)c1ccc(CN2CC/C(=C\c3ccccc3)C2=O)cc1
Response given: 2.1

* * *

tested on: HuT78; experiment: Antiproliferative activity against human HuT78 cells incubated for 72 hrs by luminescence assay; format: functional, cell-based; details: HuT78, 72 h
Below, each entry is listed alongside its reported IC50.
Unit nM implied. Number only.

molecule | IC50 (nM)
Nc1cc(F)ccc1NC(=O)c1ccc(CNC(=O)/C=C/c2cccnc2)cc1 [TUCIDINOSTAT] | 2420

Attention now shifts to the item below.
Challenge: Query the reported IC50 for HuT78; item: Nc1ccccc1NC(=O)c1ccc(CN2CCC/C(=C\c3ccccn3)C2=O)cc1
Response given: 800

* * *

experiment: Cmax in CB.17 SCID mouse xenografted with human TMD8 cells at 100 mg/kg, po measured upto 24 hrs by LC-MS/MS analysis; type: ADME, organism-based; set-up: time < 24 hrs, dose 100 mg/kg, route po; settings: in vivo
experimental_endpoint: Cmax (ng/mL)
Unit ng/mL implied. Number only.

Challenge: # lookup: Cmax of Nc1ccccc1NC(=O)c1ccc(CN2CCC/C(=C\c3ccccn3)C2=O)cc1
Response given: 10700

* * *

test: Metabolic stability in human liver microsomes assessed as half life measured for 75 to 130 mins by LC-MS/MS analysis; assay type: ADME, Microsome; details: liver microsomes, time 75-130 min
experimental_endpoint: half-life (h)
Unit h implied. Number only.

Some molecules with recorded half-life:
smiles_data | experimental_endpoint | readout_value
Nc1ccccc1NC(=O)c1ccc(CN2CCC/C(=C\c3ccccc3)C2=O)cc1 | half-life | 2.1
Nc1ccccc1NC(=O)c1ccc(CN2CCC/C(=C\c3ccccn3)C2=O)cc1 | half-life | 13.3
Nc1ccccc1NC(=O)c1ccc(CN2CCC/C(=C\c3ccncc3)C2=O)cc1 | half-life | 7.78
Nc1ccccc1NC(=O)c1ccc(CN2CCC/C(=C\c3cccnc3)C2=O)cc1 | half-life | 4.6

Attention now shifts to the item below.
Challenge: # lookup: half-life of Nc1ccccc1NC(=O)c1ccc(CN2CCC/C(=C\c3ccccc3Cl)C2=O)cc1
Response given: 2.48

* * *

Hi! I'm sharing some pIC50 results obtained with Histone deacetylase 1 (Homo sapiens, UniProt Q13547).
Sequence (Q13547 whole entry): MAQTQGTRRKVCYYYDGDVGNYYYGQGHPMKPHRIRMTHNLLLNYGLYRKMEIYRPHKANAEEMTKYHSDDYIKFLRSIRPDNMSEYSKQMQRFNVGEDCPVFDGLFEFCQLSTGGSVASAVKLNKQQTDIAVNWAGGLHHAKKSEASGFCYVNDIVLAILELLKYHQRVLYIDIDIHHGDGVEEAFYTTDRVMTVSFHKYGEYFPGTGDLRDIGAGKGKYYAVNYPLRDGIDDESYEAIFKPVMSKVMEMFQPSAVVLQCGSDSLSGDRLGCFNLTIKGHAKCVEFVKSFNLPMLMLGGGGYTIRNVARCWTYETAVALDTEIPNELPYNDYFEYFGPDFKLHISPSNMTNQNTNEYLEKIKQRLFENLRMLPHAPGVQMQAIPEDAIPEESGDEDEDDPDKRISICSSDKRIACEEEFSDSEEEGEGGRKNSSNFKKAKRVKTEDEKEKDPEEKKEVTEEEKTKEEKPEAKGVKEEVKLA
Friendly reminder that pIC50 comes from taking -log10 of the concentration in mol/L.

Some compounds with recorded pIC50:
smiles_data | study_system | pIC50
Nc1cc(F)ccc1NC(=O)c1ccc(CN2CCC/C(=C\c3ccc(Br)cc3)C2=O)cc1 | Histone deacetylase 1 (Homo sapiens, UniProt Q13547) | 5.71
Nc1cc(F)ccc1NC(=O)c1ccc(CN2CCC/C(=C\c3ccc(F)cc3)C2=O)cc1 | Histone deacetylase 1 (Homo sapiens, UniProt Q13547) | 5.58
Nc1cc(F)ccc1NC(=O)c1ccc(CN2CC/C(=C\c3ccccc3)C2=O)cc1 | Histone deacetylase 1 (Homo sapiens, UniProt Q13547) | 6.37
Nc1cc(F)ccc1NC(=O)c1ccc(CN2CCC/C(=C\c3cccnc3)C2=O)cc1 | Histone deacetylase 1 (Homo sapiens, UniProt Q13547) | 5.63

Challenge: Query the reported pIC50 for Histone deacetylase 1 (Homo sapiens, UniProt Q13547); item: Nc1ccccc1NC(=O)c1ccc(CN2CCC/C(=C\c3ccc4ccccc4c3)C2=O)cc1
Response given: 6.16
